Target: BACE-1 enzyme (Homo sapiens, UniProt P56817)
Construct: purchased R & D Systems 931AS
Sequence (P56817 46-457 limits assumed): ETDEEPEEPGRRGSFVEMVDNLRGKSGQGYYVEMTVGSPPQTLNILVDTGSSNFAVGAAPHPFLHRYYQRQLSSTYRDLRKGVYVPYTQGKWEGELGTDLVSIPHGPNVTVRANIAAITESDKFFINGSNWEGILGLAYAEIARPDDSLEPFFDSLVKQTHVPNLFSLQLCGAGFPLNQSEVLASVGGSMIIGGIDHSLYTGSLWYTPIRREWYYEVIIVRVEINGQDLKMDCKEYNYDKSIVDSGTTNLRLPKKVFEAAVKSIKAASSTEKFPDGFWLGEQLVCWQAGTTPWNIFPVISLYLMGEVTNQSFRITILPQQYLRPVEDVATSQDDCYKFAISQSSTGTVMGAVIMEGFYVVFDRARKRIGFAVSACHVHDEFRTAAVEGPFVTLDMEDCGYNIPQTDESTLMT
Assay: BACE Fluorescence Resonance Energy Transfer (FRET) Assay
Type: biochemical
Details: pH 4-4.5, 30 min pre-incubation, about 1.5 hours reaction
Protocol: BACE Fluorescence Resonance Energy Transfer (FRET) Assay In the following assay, the proteolytic activity of BACE is measured by observing cleavage of a fluorescent group from a peptide substrate containing a rhodamine fluorescent donor and a quenching acceptor. The inhibitory activity of compounds of Formula (I) may be compared to a statine derived control inhibitor STA200 (MP Biomedical Cat. #STA-200). […]
OUTCOME_MEASURE: log10(IC50) (log10 of the value in µM)
Response schema: value (number) is log10 of IC50 in units of µM.

- CN(Cc1ccccc1)Cc1cccc2nc(C(=O)Nc3nc4cc(-c5cccc(C(F)(F)F)c5)ccc4[nH]3)cn12 [Example 190]: 0.11
- Cc1cccc2nc(C(=O)Nc3nc4cc(C5CCC(C)CC5)ccc4[nH]3)cn12 (stereo not drawn) [Example 119]: -0.57
- Cc1cccn2cc(C(=O)Nc3nc4cc(-c5cccc(C#N)c5)ccc4[nH]3)nc12 [Example 84]: 0.08
- Cc1cccc2nc(C(=O)Nc3nc4cc(-c5ccsc5)ccc4[nH]3)cn12 [Example 102]: -0.35

Field request: log10(IC50) | item: O=C(Nc1nc2cc(-c3ccc(F)c(C(F)(F)F)c3)ccc2[nH]1)c1cn2c(F)cccc2n1 [Example 58] -0.12

Same lookup for O=C(Nc1nc2cc(-c3cccc(C(F)(F)F)c3)ccc2[nH]1)c1cn2c(CNCc3ccccc3)cccc2n1 [Example 173] , please. -0.24

Same lookup for O=C(Nc1nc2cc(-c3cccc(C(F)(F)F)c3)ccc2[nH]1)c1cn2ccc(CN3CCOCC3)cc2n1 [Example 201] , please. -0.01

Same lookup for Cc1cc(Cl)c2nc(C(=O)Nc3nc4cc(-c5cc(F)cc(Cl)c5)ccc4[nH]3)cn2c1 [Example 144] , please. -0.26

Same lookup for O=C(Nc1nc2cc(-c3cccc(C(F)(F)F)c3)ccc2[nH]1)c1cn2cc(Cl)ccc2n1 [Example 34] , please. 0.40

Same lookup for O=C(Nc1nc2cc(-c3cccc(C(F)(F)F)c3)ccc2[nH]1)c1cn2ccc(CO)cc2n1 [Example 200] , please. -0.34

Same lookup for O=C(Nc1nc2cc(-c3cc(F)cc(Cl)c3)ccc2[nH]1)c1cn2cc(F)cc(N3CC[C@@H](O)C3)c2n1 [Example 153] , please. 0.26

Same lookup for CN1CCN(CCOc2cc(F)cn3cc(C(=O)Nc4nc5cc(-c6cc(F)cc(Cl)c6)ccc5[nH]4)nc23)CC1 [Example 148] , please. -0.41

Same lookup for COc1cccc2nc(C(=O)Nc3nc4cc(-c5cccc(C(F)(F)F)c5)ccc4[nH]3)cn12 [Example 4] , please. -0.29

Same lookup for CN(C)c1cc(F)cn2cc(C(=O)Nc3nc4cc(-c5cccc(OC(F)(F)F)c5)ccc4[nH]3)nc12 [Example 133] , please. -0.19

Same lookup for CCNCc1ccc2nc(C(=O)Nc3nc4cc(-c5cccc(C(F)(F)F)c5)ccc4[nH]3)cn2c1 [Example 187] , please. -0.29

Same lookup for O=C(Nc1nc2cc(-c3cc(F)cc(Cl)c3)ccc2[nH]1)c1cn2c(N3CC[C@@H](O)C3)cccc2n1 [Example 8] , please. -0.70

Same lookup for Cc1cccc2nc(C(=O)Nc3nc4cc(-c5cccc(C(F)(F)F)c5)ccc4[nH]3)cn12 [Example 1] , please. -0.49

Numbers sourced from patent US20120101093A1.
